- testSystem: malate dehydrogenase (MDH) (Sus scrofa, UniProt P00346)
- Sequence (P00346 25-338): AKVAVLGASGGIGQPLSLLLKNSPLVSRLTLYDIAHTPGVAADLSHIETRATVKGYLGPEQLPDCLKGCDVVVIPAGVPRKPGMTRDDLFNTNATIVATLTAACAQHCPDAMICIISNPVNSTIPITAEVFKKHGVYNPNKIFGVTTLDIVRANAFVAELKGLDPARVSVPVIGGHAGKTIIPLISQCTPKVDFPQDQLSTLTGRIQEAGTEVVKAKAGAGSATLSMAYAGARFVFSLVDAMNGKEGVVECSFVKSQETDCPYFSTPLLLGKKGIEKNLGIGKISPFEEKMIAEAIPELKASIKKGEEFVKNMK
- protocolDetails: Malate dehydrogenase
- Assay type: biochemical
- runConditions: read-out: IC50 MDH with TritonX; with 0.01% Triton X-100
quantityMeasured: IC50

compound: Cc1cc(C(C#N)c2ccc(Cl)cc2)c(Cl)cc1NC(=O)c1cc(I)cc(I)c1O (stereo not drawn) [S4105]
testSystem: malate dehydrogenase (MDH) (Sus scrofa, UniProt P00346)
quantityMeasured: IC50
experimentalValue: > 100 µM

compound: COc1cc(C(=O)NS(=O)(=O)c2ccccc2C)ccc1Cc1cn(C)c2ccc(NC(=O)OC3CCCC3)cc12 [S1633]
testSystem: malate dehydrogenase (MDH) (Sus scrofa, UniProt P00346)
quantityMeasured: IC50
experimentalValue: > 100 µM

compound: CN(CC(=O)N(Cc1ccc(C2CCCCC2)cc1)c1ccc(C(=O)O)cc1)S(=O)(=O)c1c(F)c(F)c(F)c(F)c1F [S7337]
testSystem: malate dehydrogenase (MDH) (Sus scrofa, UniProt P00346)
quantityMeasured: IC50
experimentalValue: > 100 µM

---

- Test system: DENV2 NGC
- protocolDetails: Plaque reduction assay, DENV2
- Format: cell-based, dengue virus serotype 2
- runConditions: read-out: PRNT50 DENV2; bound stated
pIC50: −log10 of the molar value.
A collection of compounds and their measured pIC50

compound: CN(CC(=O)N(Cc1ccc(C2CCCCC2)cc1)c1ccc(C(=O)O)cc1)S(=O)(=O)c1c(F)c(F)c(F)c(F)c1F [S7337]
pIC50: ≥ 6.00
//
compound: Cc1cc(C(C#N)c2ccc(Cl)cc2)c(Cl)cc1NC(=O)c1cc(I)cc(I)c1O (centres unmarked) [S4105]
pIC50: ≥ 6.00

---

- testSystem: AmpC β-lactamase (Escherichia coli, UniProt P00811)
- Sequence (P00811 20-377): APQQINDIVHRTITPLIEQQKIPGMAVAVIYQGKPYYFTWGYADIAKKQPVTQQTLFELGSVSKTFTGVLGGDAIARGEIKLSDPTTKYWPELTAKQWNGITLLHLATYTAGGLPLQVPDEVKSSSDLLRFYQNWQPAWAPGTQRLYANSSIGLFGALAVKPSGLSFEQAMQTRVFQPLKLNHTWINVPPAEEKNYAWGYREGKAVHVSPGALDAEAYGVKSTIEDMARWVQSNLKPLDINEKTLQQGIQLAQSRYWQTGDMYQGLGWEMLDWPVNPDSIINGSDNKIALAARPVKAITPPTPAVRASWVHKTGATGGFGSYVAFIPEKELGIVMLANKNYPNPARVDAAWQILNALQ
- runConditions: read-out: IC50 AmpC no TritonX; no Triton X-100

molecule: Cc1cc(C(C#N)c2ccc(Cl)cc2)c(Cl)cc1NC(=O)c1cc(I)cc(I)c1O (stereo not drawn)
censoringQualifier: =
IC50 / µM: 19.5
//
molecule: COc1cc(C(=O)NS(=O)(=O)c2ccccc2C)ccc1Cc1cn(C)c2ccc(NC(=O)OC3CCCC3)cc12
censoringQualifier: =
IC50 / µM: 36.6
//
molecule: CN(CC(=O)N(Cc1ccc(C2CCCCC2)cc1)c1ccc(C(=O)O)cc1)S(=O)(=O)c1c(F)c(F)c(F)c(F)c1F
censoringQualifier: >
IC50 / µM: 100

---

- testSystem: DENV2 sE2 (Dengue virus type 2)
pKd: −log10 of the molar value.
quantityMeasured: pKd

molecule: CN(CC(=O)N(Cc1ccc(C2CCCCC2)cc1)c1ccc(C(=O)O)cc1)S(=O)(=O)c1c(F)c(F)c(F)c(F)c1F
experimentalValue: 5.89

molecule: Cc1cc(C(C#N)c2ccc(Cl)cc2)c(Cl)cc1NC(=O)c1cc(I)cc(I)c1O (stereo not drawn)
experimentalValue: 6.05

molecule: COc1cc(C(=O)NS(=O)(=O)c2ccccc2C)ccc1Cc1cn(C)c2ccc(NC(=O)OC3CCCC3)cc12
experimentalValue: 5.28

---

- Test system: DENV1 WP74
- protocolDetails: Plaque reduction assay, DENV1
- Format: cell-based, dengue virus serotype 1
- runConditions: read-out: PRNT50 DENV1; bound stated
A collection of molecules and their measured IC50

molecule: CN(CC(=O)N(Cc1ccc(C2CCCCC2)cc1)c1ccc(C(=O)O)cc1)S(=O)(=O)c1c(F)c(F)c(F)c(F)c1F [S7337]
testSystem: DENV1 WP74
IC50: ≤ 1000 nM
//
molecule: Cc1cc(C(C#N)c2ccc(Cl)cc2)c(Cl)cc1NC(=O)c1cc(I)cc(I)c1O (centres unmarked) [S4105]
testSystem: DENV1 WP74
IC50: ≤ 1000 nM

---

- System: BHK-21 cells
- Assay type: cell-based
A collection of compounds and their measured CC50
quantityMeasured: CC50

compound: Cc1cc(C(C#N)c2ccc(Cl)cc2)c(Cl)cc1NC(=O)c1cc(I)cc(I)c1O (stereo not drawn)
quantityMeasured: CC50
experimentalValue: 50 µM
--
compound: CN(CC(=O)N(Cc1ccc(C2CCCCC2)cc1)c1ccc(C(=O)O)cc1)S(=O)(=O)c1c(F)c(F)c(F)c(F)c1F
quantityMeasured: CC50
experimentalValue: 13 µM
--
compound: COc1cc(C(=O)NS(=O)(=O)c2ccccc2C)ccc1Cc1cn(C)c2ccc(NC(=O)OC3CCCC3)cc12
quantityMeasured: CC50
experimentalValue: 50 µM
